Target chain: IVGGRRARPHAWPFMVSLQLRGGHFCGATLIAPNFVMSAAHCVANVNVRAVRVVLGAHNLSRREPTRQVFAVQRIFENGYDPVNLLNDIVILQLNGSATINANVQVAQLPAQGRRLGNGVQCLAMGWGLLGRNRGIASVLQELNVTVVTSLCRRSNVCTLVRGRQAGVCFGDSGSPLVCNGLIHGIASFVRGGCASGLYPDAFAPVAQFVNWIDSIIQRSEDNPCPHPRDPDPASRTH
READOUT KIND: pKi
Note on units: pKi is unitless, being -log10 of a concentration expressed in mol/L.

Query string: Please look up its pKi: CC(C)C(NC(=O)Cn1ccc2c(=O)n(CC(=O)OCc3ccccc3)c(=O)[nH]c2c1=O)C(=O)C(F)(F)F (stereo not shown) [Example 13]
Result string: 7.36
